tested on: UACC-257 melanoma; test: NCI-60 one-dose screen, 48 h; conditions: 10 µM unless noted
This is part of a sample that, as a whole, favours compounds with a hit. Of some 83,000 tested, about 20% had one in any assay. Active and inactive are the calls of the source. How the source made its calls: active means growth percent below 10; inactive means the rest.
Classes used: YES for active, NO for inactive

> print(dat)
                            chemical.smiles  discrete.label
1  Cc1ccc(S(=O)(=O)NC(=O)n2cc(-c3ccncc3)c(-c3ccc(Cl)c(O)c3)n2)cc1              NO
2  CCn1c2ccccc2c2cc(NC(=O)Nc3ccc([N+](=O)[O-])cc3C)ccc21              NO
3  O=S(=O)(NCCNc1nccc(-c2c(-c3cccc(O)c3)nc3sccn23)n1)c1ccc(F)cc1             YES
4  CCCCOc1ccc(/C=C2/SC(N3CCOCC3)=NC2=O)cc1OCC              NO
5  COc1cccc(CC(C)=C(c2ccc(OCCN(C)C)cc2)c2ccc(OCCN(C)C)cc2)c1             YES
